Target: hGLP-1R (Homo sapiens, UniProt P43220)
Sequence (P43220 24-463): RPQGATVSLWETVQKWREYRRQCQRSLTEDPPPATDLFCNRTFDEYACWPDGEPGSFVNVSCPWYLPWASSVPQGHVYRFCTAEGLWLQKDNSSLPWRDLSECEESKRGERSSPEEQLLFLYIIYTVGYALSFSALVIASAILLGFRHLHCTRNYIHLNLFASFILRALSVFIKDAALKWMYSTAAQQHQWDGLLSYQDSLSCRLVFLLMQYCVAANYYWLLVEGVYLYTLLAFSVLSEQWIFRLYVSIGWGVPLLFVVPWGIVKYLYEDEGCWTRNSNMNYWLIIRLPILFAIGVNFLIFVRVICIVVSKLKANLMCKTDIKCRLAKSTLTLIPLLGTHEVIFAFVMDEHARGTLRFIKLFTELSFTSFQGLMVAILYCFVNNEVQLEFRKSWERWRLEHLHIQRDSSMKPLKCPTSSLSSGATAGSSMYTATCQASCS
Test: Functional cAMP activity in the presence of 1% HSA
Type: cell-based
Conditions: read-out: cAMP Rel EC50, hGLP-1R
Starred links: 1 amine or outer side, 2 acyl side, 3 side chain; linkers in the order of their positions; H or OH if unused. Non-standard residues stand in square brackets, D forms with d. Groups on a side chain read outwards from the residue. No end group written: not given here. *: point of attachment. C18 diacid = O=C(O)CCCCCCCCCCCCCCCCC(=O)*; αMePhe(2-F) = C[C@](N)(Cc1ccccc1F)C(=O)O; γGlu = O=C(O)[C@H](CCC(=O)[*:2])N[*:1]; αMe4Pal = C[C@](N)(Cc1ccncc1)C(=O)O; αMeY = C[C@](N)(Cc1ccc(O)cc1)C(=O)O; 4Pal = N[C@@H](Cc1ccncc1)C(=O)O; αMeL = CC(C)C[C@](C)(N)C(=O)O; αMeS = C[C@](N)(CO)C(=O)O; Orn = NCCC[C@H](N)C(=O)O; AEEA = NCCOCCOCC(=O)O; Aib = CC(C)(N)C(=O)O
Listed below: log10 of EC50 values for each entry.
MEASURED_QUANTITY: log10 of EC50 (log10 of the value in µM)

- SUBSTANCE: "H-Y[Aib]Q[dA]T[αMePhe(2-F)]TSD[4Pal][αMeS]I[αMeL]LD[Orn]K([AEEA-γGlu-C18 diacid])AQ[αMe4Pal]EFI[dE][αMeY]LIEGGPSSGEPPPSGTGE-NH2 [Example 766]"
  TARGET_SYSTEM: "hGLP-1R (Homo sapiens, UniProt P43220)"
  log10 of EC50: -1.49
- SUBSTANCE: "Y[Aib]QGTFTSD[4Pal]SQ[αMeL]LD[Orn]K([dE-γGlu-C18 diacid])AQ[αMe4Pal]QFIE[αMeY]LIA[Aib]GPSSGEPPPSGSEE-NH2 [Example 1106]"
  TARGET_SYSTEM: "hGLP-1R (Homo sapiens, UniProt P43220)"
  log10 of EC50: -0.92
- SUBSTANCE: "Y[Aib]QGTFTSDFS[Orn][αMeL]LDKK([AEEA-AEEA-γGlu-C18 diacid])AQ[Aib]AFIEYLLE[dA]GPSSGHPPPSGH-NH2 [Example 255]"
  TARGET_SYSTEM: "hGLP-1R (Homo sapiens, UniProt P43220)"
  log10 of EC50: -0.57
- SUBSTANCE: "Y[Aib]QGTFTSD[4Pal]SQ[αMeL]LDKK([dE-γGlu-C18 diacid])AQ[αMe4Pal]AFIEYLIAGGPSSGAPPPSGEEE-NH2 [Example 1088]"
  TARGET_SYSTEM: "hGLP-1R (Homo sapiens, UniProt P43220)"
  log10 of EC50: -0.44
- SUBSTANCE: "H-Y[Aib]QGTFTSD[4Pal]S[Orn][αMeL]LDKK([AEEA-γGlu-γGlu-C18 diacid])AQ[αMe4Pal]AFIE[αMe4Pal]LIE[Aib]GPSSGEPPPSGS-NH2 [Example 987]"
  TARGET_SYSTEM: "hGLP-1R (Homo sapiens, UniProt P43220)"
  log10 of EC50: -0.29
- SUBSTANCE: "H-Y[Aib]QGT[αMePhe(2-F)]TSDYSILLDKK([AEEA-γGlu-C18 diacid])AQ[Aib]AFIEFLEEGGPSSGAPPPSEG-NH2 [Example 412]"
  TARGET_SYSTEM: "hGLP-1R (Homo sapiens, UniProt P43220)"
  log10 of EC50: -1.34
- SUBSTANCE: "Y[Aib]QGTFTSD[4Pal]SQ[αMeL]LD[Orn]K([γGlu-γGlu-C18 diacid])AQ[αMe4Pal]AFIEYLIE[Aib]GPSSGAPPPSGS-NH2 [Example 935]"
  TARGET_SYSTEM: "hGLP-1R (Homo sapiens, UniProt P43220)"
  log10 of EC50: -0.76
- SUBSTANCE: "H-Y[Aib]QGTFTSDFSK[αMeL]LDKK([AEEA-γGlu-C18 diacid])AQ[Aib]QFIEYLLEGGPSSGAPPPSEG-NH2 [Example 51]"
  TARGET_SYSTEM: "hGLP-1R (Homo sapiens, UniProt P43220)"
  log10 of EC50: 0.08
- SUBSTANCE: "H-Y[Aib]QGTFTSD[4Pal]SQ[αMeL]LD[Orn]K([AEEA-γGlu-C18 diacid])AQ[Aib]AFIE[αMeY]LIEGGPSSGAPPPSGS-NH2 [Example 850]"
  TARGET_SYSTEM: "hGLP-1R (Homo sapiens, UniProt P43220)"
  log10 of EC50: -1.24
- SUBSTANCE: "H-Y[Aib]QGTFTSD[4Pal]SQ[αMeL]LDKK([γGlu-γGlu-γGlu-C18 diacid])AQ[αMe4Pal]AFIEYLIE[Aib]GPSSGAPPPSGS-NH2 [Example 859]"
  TARGET_SYSTEM: "hGLP-1R (Homo sapiens, UniProt P43220)"
  log10 of EC50: -0.27
- SUBSTANCE: "H-Y[Aib]QGTFTSDFS[Orn][αMeL]LDKK([AEEA-γGlu-C18 diacid])AQ[Aib]AFIEYLLE[Aib]GPSS[Aib]APPPSGS-NH2 [Example 238]"
  TARGET_SYSTEM: "hGLP-1R (Homo sapiens, UniProt P43220)"
  log10 of EC50: -0.58

----------
Molecular target: human GcgR (Homo sapiens, UniProt P47871)
Sequence (P47871 26-477): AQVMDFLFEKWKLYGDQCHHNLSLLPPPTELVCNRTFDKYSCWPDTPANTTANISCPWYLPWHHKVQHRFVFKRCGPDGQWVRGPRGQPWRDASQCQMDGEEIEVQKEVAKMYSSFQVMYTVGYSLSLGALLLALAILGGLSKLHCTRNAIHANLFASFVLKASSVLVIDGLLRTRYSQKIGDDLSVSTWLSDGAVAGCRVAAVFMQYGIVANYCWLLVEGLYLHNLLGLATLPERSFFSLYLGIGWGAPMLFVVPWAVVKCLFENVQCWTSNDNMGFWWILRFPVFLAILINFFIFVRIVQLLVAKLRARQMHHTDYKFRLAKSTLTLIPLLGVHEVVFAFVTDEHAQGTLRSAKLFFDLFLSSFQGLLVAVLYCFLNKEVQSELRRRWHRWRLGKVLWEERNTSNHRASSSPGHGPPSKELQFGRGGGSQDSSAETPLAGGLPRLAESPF
Assay: Functional cAMP activity in the presence of 1% HSA
Assay type: cell-based
Details: read-out: cAMP Rel EC50, hGcgR
pEC50: −log10 of the molar value. Starred links: 1 amine or outer side, 2 acyl side, 3 side chain; linkers in the order of their positions; H or OH if unused. Non-standard residues stand in square brackets, D forms with d. Groups on a side chain read outwards from the residue. No end group written: not given here. *: point of attachment. C20 diacid = O=C(O)CCCCCCCCCCCCCCCCCCC(=O)*; C18 diacid = O=C(O)CCCCCCCCCCCCCCCCC(=O)*; αMePhe(2-F) = C[C@](N)(Cc1ccccc1F)C(=O)O; γGlu = O=C(O)[C@H](CCC(=O)[*:2])N[*:1]; NMeY = CN[C@@H](Cc1ccc(O)cc1)C(=O)O; αMe4Pal = C[C@](N)(Cc1ccncc1)C(=O)O; αMeY = C[C@](N)(Cc1ccc(O)cc1)C(=O)O; αMeF = C[C@](N)(Cc1ccccc1)C(=O)O; 4Pal = N[C@@H](Cc1ccncc1)C(=O)O; αMeL = CC(C)C[C@](C)(N)C(=O)O; αMeS = C[C@](N)(CO)C(=O)O; Orn = NCCC[C@H](N)C(=O)O; AEEA = NCCOCCOCC(=O)O; Aib = CC(C)(N)C(=O)O
Listed below: pEC50 values for each entry.

- SUBSTANCE: "H-Y[Aib]QGT[αMePhe(2-F)]TSD[4Pal][αMeS]I[αMeL]LD[Orn]K([γGlu-γGlu-C18 diacid])AQ[Aib][Orn]FI[dE][αMeY]LSEGGPSSGEPPPSGAEE-NH2 [Example 567]"
  pEC50: 6.28
- SUBSTANCE: "H-Y[Aib]QGTFTSD[4Pal]SQ[αMeL]LD[Orn]K([dE-γGlu-C18 diacid])AQ[αMe4Pal]QFIE[αMeY]LLAGGPSSGAPPPSGSEEE-NH2 [Example 1084]"
  pEC50: 5.86
- SUBSTANCE: "H-Y[Aib]QGT[αMePhe(2-F)]TSD[4Pal][αMeS]I[αMeL]LD[Orn]K([AEEA-γGlu-C18 diacid])AQ[αMe4Pal]EFI[dE][αMeY]LIEGGPSSGEPPPSGTGE-NH2 [Example 711]"
  pEC50: 6.71
- SUBSTANCE: "H-Y[Aib]QGTFTSDFS[Orn][αMeL]LDKK([AEEA-γGlu-C20 diacid])AQ[Aib]AFIEYLLAGGPSSGAPPPSGE-NH2 [Example 82]"
  pEC50: 5.97
- SUBSTANCE: "H-Y[Aib]QGTFTSDFS[Orn][αMeL]LDKK([AEEA-γGlu-C18 diacid])AQ[Aib]AFIEWLLEGGSSSGAPPPSGH-NH2 [Example 270]"
  pEC50: 5.97
- SUBSTANCE: "H-Y[Aib]QGTFTSDFS[Orn][αMeL]LDKK([AEEA-γGlu-C18 diacid])AQ[Aib]AFIEYLLE[dA]GPSSGAPPPSG[4Pal]-NH2 [Example 211]"
  pEC50: 6.43
- SUBSTANCE: "Y[Aib]QGT[αMeF]TSD[4Pal][αMeS]I[αMeL]LD[Orn]K([AEEA-γGlu-C18 diacid])AQ[αMe4Pal]EFI[dE][αMeY]LIEGGPSSGEPPPSGGGE-NH2 [Example 1169]"
  pEC50: 6.52
- SUBSTANCE: "H-Y[Aib]QGTFTSD[4Pal]SQ[αMeL]LD[Orn]K([γGlu-γGlu-C18 diacid])AQ[αMe4Pal]AFI[dE][αMeY]LIEGGPSSGAPPPSGSEE-NH2 [Example 1044]"
  pEC50: 5.62
- SUBSTANCE: "H-Y[Aib]QGTFTSDFS[Orn][αMeL]LDKK([AEEA-γGlu-C18 diacid])AQ[Aib]AFIEYLLE[dA]GPSSGAPPPSGS-NH2 [Example 209]"
  pEC50: 6.36
- SUBSTANCE: "H-Y[Aib]QGTFTSDFS[Orn][αMeL]LDKK([AEEA-γGlu-C18 diacid])AQ[Aib]AFIEYLLE[dA]GHSSGAPPPSGE-NH2 [Example 207]"
  pEC50: 6.11
- SUBSTANCE: "H-Y[Aib]QGT[αMePhe(2-F)]TSD[4Pal][αMeS]I[αMeL]LD[Orn]K([AEEA-AEEA-γGlu-C18 diacid])AQ[Aib][Orn]FIEYLIEGGPSSGAPEPSEG-NH2 [Example 492]"
  pEC50: 6.89
- SUBSTANCE: "H-Y[Aib]QGTFTSD[4Pal][αMeS]Q[αMeL]LD[Orn]K([dE-γGlu-C18 diacid])AQ[αMe4Pal]QFIE[αMeY]LIA[Aib]GPSSGEPPPSGGGE-NH2 [Example 1182]"
  pEC50: 6.76
- SUBSTANCE: "H-Y[Aib]QGTFTSD[4Pal]S[Orn][αMeL]LD[Orn]K([Glu-γGlu-C18 diacid])AQ[Aib]AFIE[αMeY]LLEGGPSSGAPPPSGSEE-NH2 [Example 1066]"
  pEC50: 5.37
- SUBSTANCE: "H-Y[Aib]QGTFTSDFS[Orn][αMeL]LDKK([AEEA-AEEA-γGlu-C18 diacid])AQ[Aib]AFIEYLLE[dA]GPSSGEPPPSGE-NH2 [Example 117]"
  pEC50: 6.06
- SUBSTANCE: "H-[NMeY][Aib]QGT[αMeF]TSDYSSLLDKIAAK([AEEA-AEEA-γGlu-C20 diacid])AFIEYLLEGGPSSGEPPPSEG-NH2 [Example 297]"
  pEC50: 5.63
- SUBSTANCE: "H-Y[Aib]QGT[αMePhe(2-F)]TSD[4Pal][αMeS]I[αMeL]LD[Orn]K([γGlu-γGlu-C18 diacid])AQ[Aib][Orn]FI[dE][αMeY]LSEGGPSSGEPPPSGTEE-NH2 [Example 561]"
  pEC50: 6.26
- SUBSTANCE: "Y[Aib]QGTFTSD[4Pal]SQ[αMeL]LD[Orn]K([dE-γGlu-C18 diacid])AQ[αMe4Pal]AFIQ[αMeY]LLEGGPSSGAPPPSGSEEE-NH2 [Example 1083]"
  pEC50: 5.99
- SUBSTANCE: "H-Y[Aib]QGTFTSDFS[Orn][αMeL]LDKK([AEEA-AEEA-γGlu-C18 diacid])AQ[Aib]AFIEYLLE[Aib]GPSSGEPPPSGT-NH2 [Example 167]"
  pEC50: 6.03
- SUBSTANCE: "H-Y[Aib]QGTFTSD[4Pal]SQ[αMeL]LD[Orn]K([dE-γGlu-C18 diacid])AQ[αMe4Pal]AFIE[αMeY]LIAGGPSSGAPPPSGSEE-NH2 [Example 1074]"
  pEC50: 5.70
- SUBSTANCE: "Y[Aib]QGT[αMePhe(2-F)]TSD[4Pal]SI[αMeL]LD[Orn]K([AEEA-γGlu-C18 diacid])AQ[αMe4Pal]EFI[dE][αMeY]LIEGGPSSGEPPPSGS-NH2 [Example 644]"
  pEC50: 6.20
- SUBSTANCE: "H-Y[Aib]QGTFTSD[4Pal]S[Orn][αMeL]LD[Orn]K([γGlu-γGlu-C18 diacid])AQ[αMe4Pal]EFIEYLLAGGPSSGAPPPSGSEE-NH2 [Example 1003]"
  pEC50: 6.43
